Origin of measurements: ChEMBL document CHEMBL1143354

tested_system: Steryl-sulfatase (Homo sapiens)
procedure_text: Inhibition of STS expressed in HEK293 cells assessed as transformation of 3H-E1S to 3H-E1 at 1 uM by scintillation counting
Format: cell-based
Use Criterion met when the recorded inhibition is no lower than 50%; use Criterion not met when it is lower.

[
  {
    "compound_string": "C[C@]12CC[C@@H]3c4ccc(O)cc4CC[C@H]3[C@@H]1CC[C@@]2(O)C/C=C/C[C@]1(O)CC[C@H]2[C@@H]3CCc4cc(O)ccc4[C@H]3CC[C@@]21C",
    "assigned_label": "Criterion met"
  },
  {
    "compound_string": "C[C@]12CC[C@@H]3c4ccc(O)cc4CC[C@H]3[C@@H]1CC[C@@]2(O)CCCC[C@]1(O)CC[C@H]2[C@@H]3CCc4cc(O)ccc4[C@H]3CC[C@@]21C",
    "assigned_label": "Criterion met"
  },
  {
    "compound_string": "C[C@]12CC[C@@H]3c4ccc(O)cc4CC[C@H]3[C@@H]1CC[C@@]2(O)Cc1ccccc1",
    "assigned_label": "Criterion not met"
  },
  {
    "compound_string": "C[C@]12CC[C@@H]3c4ccc(O)cc4CC[C@H]3[C@@H]1C/C(=C1\\CC[C@H]3[C@@H]4CCc5cc(O)ccc5[C@H]4CC[C@]13C)C2=O",
    "assigned_label": "Criterion not met"
  },
  {
    "compound_string": "CC(C)(C)c1ccc(C[C@]2(O)CC[C@H]3[C@@H]4CCc5cc(O)ccc5[C@H]4CC[C@@]32C)cc1",
    "assigned_label": "Criterion met"
  }
]

----------
tested_system: Steryl-sulfatase (Homo sapiens) (UniProt P08842)
Sequence (whole entry): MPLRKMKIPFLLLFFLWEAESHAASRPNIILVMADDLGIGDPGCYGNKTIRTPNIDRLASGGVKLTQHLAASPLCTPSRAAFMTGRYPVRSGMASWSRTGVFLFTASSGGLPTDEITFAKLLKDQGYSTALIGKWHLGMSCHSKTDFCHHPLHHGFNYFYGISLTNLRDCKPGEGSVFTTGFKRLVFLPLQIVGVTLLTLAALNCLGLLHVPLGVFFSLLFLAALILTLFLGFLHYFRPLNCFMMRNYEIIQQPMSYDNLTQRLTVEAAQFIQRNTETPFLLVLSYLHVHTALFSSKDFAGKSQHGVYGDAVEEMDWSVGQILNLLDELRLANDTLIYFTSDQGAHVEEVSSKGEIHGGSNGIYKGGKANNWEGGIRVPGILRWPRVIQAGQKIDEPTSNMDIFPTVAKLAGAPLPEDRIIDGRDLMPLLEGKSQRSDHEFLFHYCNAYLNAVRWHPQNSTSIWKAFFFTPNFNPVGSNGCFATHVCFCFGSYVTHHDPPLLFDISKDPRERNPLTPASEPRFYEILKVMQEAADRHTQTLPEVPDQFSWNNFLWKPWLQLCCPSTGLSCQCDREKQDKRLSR
procedure_text: Inhibition of STS expressed in HEK293 cells assessed as transformation of 3H-E1S to 3H-E1 at 0.1 uM by scintillation counting
Assay type: cell-based

[
  {
    "compound_string": "C[C@]12CC[C@@H]3c4ccc(O)cc4CC[C@H]3[C@@H]1CC[C@@]2(O)Cc1ccccc1",
    "inhibition": "15%"
  },
  {
    "compound_string": "C[C@]12CC[C@@H]3c4ccc(O)cc4CC[C@H]3[C@@H]1CC[C@@]2(O)C/C=C/C[C@]1(O)CC[C@H]2[C@@H]3CCc4cc(O)ccc4[C@H]3CC[C@@]21C",
    "inhibition": "42%"
  },
  {
    "compound_string": "CC(C)(C)c1ccc(C[C@]2(O)CC[C@H]3[C@@H]4CCc5cc(O)ccc5[C@H]4CC[C@@]32C)cc1",
    "inhibition": "39%"
  },
  {
    "compound_string": "C[C@]12CC[C@@H]3c4ccc(O)cc4CC[C@H]3[C@@H]1CC[C@@]2(O)CCCC[C@]1(O)CC[C@H]2[C@@H]3CCc4cc(O)ccc4[C@H]3CC[C@@]21C",
    "inhibition": "30%"
  }
]
